Assay: Encapsulation of mRNA nanoparticles with lipid amines using Ribogreen assay
Type: physicochemical
Conditions: Luciferase mRNA nanoparticle modified with lipid amine
Structures can show the parent of a compound that is named as a salt.
OBSERVABLE: % Encapsulation (Ribogreen) (%)
Entry rule: numbers only, all in %.

Q: Quick one: % Encapsulation (Ribogreen) for CC[C@H](CC[C@@H](C)[C@H]1CC[C@H]2[C@@H]3CC=C4C[C@@H](OC(=O)N(CCCCCCCC(C)N)CCC(C)N)CC[C@]4(C)[C@H]3CC[C@]12C)C(C)C (stereo partly drawn) [SA144, dihydrochloride] ?
Ans: 99.2

Q: Please do the same for C/C(=C/CCC(C)C)[C@H]1CC[C@H]2[C@@H]3CC=C4C[C@@H](OC(=O)N(CCCN)CCCCNCCCN)CC[C@]4(C)[C@H]3CC[C@]12C as well.
Ans: 97.9

Q: Please do the same for CCC(N)CCNCCCCN(CCC(N)CC)C(=O)O[C@H]1CC[C@@]2(C)C(=CC[C@H]3[C@@H]4CC[C@H]([C@H](C)CCCC(C)C)[C@@]4(C)CC[C@@H]32)C1.Cl.Cl.Cl (stereo partly drawn) as well.
Ans: 99.7

Q: Please do the same for CC[C@H](CC[C@@H](C)[C@H]1CC[C@H]2[C@@H]3CC=C4C[C@@H](OC(=O)CCC(=O)N(CCCCCCCC(C)N)CCC(C)N)CC[C@]4(C)[C@H]3CC[C@]12C)C(C)C (stereo partly drawn) [SA163, dihydrochloride] as well.
Ans: 99.1

Q: Please do the same for CC(C)CCC[C@@H](C)[C@H]1CC[C@H]2[C@@H]3CC=C4C[C@@H](OC(=O)CCCC(=O)N(CCCN)CCCCCCCCN)CC[C@]4(C)[C@H]3CC[C@]12C.Cl.Cl as well.
Ans: 99.5

Q: Please do the same for CC(C)CCC[C@@H](C)[C@H]1CC[C@H]2[C@@H]3CC=C4C[C@@H](OC(=O)CSSCC(=O)N(CCCN)CCCCNCCCN)CC[C@]4(C)[C@H]3CC[C@]12C [SA98, trihydrochloride] as well.
Ans: 97.0

Q: Please do the same for CC(C)CCC[C@@H](C)[C@H]1CC[C@H]2[C@@H]3CC=C4C[C@@H](OC(=O)N(CCCCNC(C)CCN)C(C)CCN)CC[C@]4(C)[C@H]3CC[C@]12C (stereo partly drawn) [SA74, trihydrochloride] as well.
Ans: 99.1

Q: Please do the same for CC(C)CCC[C@@H](C)[C@H]1CC[C@H]2[C@@H]3CC=C4C[C@@H](OC(=O)N(CCCN)CCCCCCCCN)CC[C@]4(C)[C@H]3CC[C@]12C [SA60, dihydrochloride] as well.
Ans: 98.8

Q: Please do the same for CC(C)CCC[C@@H](C)[C@H]1CC[C@H]2[C@@H]3CC=C4C[C@@H](OC(=O)N(CCCCNCC(C)CN)CC(C)CN)CC[C@]4(C)[C@H]3CC[C@]12C (stereo partly drawn) [SA75, trihydrochloride] as well.
Ans: 98.8

Q: Please do the same for CC(C)CCC[C@@H](C)[C@H]1CC[C@H]2[C@@H]3CC=C4C[C@@H](OC(=O)N(CCCC(C)(C)N)CCC(C)(C)N)CC[C@]4(C)[C@H]3CC[C@]12C [SA157, dihydrochloride] as well.
Ans: 99.6

Q: Please do the same for CC[C@H](CC[C@@H](C)[C@H]1CC[C@H]2[C@@H]3CC=C4C[C@@H](SSCCC(=O)N(CCCCNCCC(N)(CC)CC)CCC(N)(CC)CC)CC[C@]4(C)[C@H]3CC[C@]12C)C(C)C [SA181, trihydrochloride] as well.
Ans: 99.5

Q: Please do the same for CC[C@H](CC[C@@H](C)[C@H]1CC[C@H]2[C@@H]3CC=C4C[C@@H](OC(=O)CCC(=O)N(CCCCCCCC(C)(C)N)CCC(C)(C)N)CC[C@]4(C)[C@H]3CC[C@]12C)C(C)C [SA165, dihydrochloride] as well.
Ans: 98.8

Q: Please do the same for CC(C)CCC[C@@H](C)[C@H]1CC[C@H]2[C@@H]3CC=C4C[C@@H](OC(=O)[C@H](CCCN)NCCCCCCN)CC[C@]4(C)[C@H]3CC[C@]12C.Cl.Cl.Cl as well.
Ans: 99.3

Q: Please do the same for CC(C)CCC[C@@H](C)[C@H]1CC[C@H]2[C@@H]3CC=C4C[C@@H](SSCCC(=O)N(CCCCCCCC(C)N)CCC(C)N)CC[C@]4(C)[C@H]3CC[C@]12C (stereo partly drawn) [SA172, dihydrochloride] as well.
Ans: 99.4

Q: Please do the same for CC(C)CCC[C@@H](C)[C@H]1CC[C@H]2[C@@H]3CC=C4C[C@@H](SSCCC(=O)N(CCCN)CCCCCCCCN)CC[C@]4(C)[C@H]3CC[C@]12C [SA97, dihydrochloride] as well.
Ans: 98.8

Q: Please do the same for CC(C)CCC[C@@H](C)[C@H]1CC[C@H]2[C@@H]3CC=C4C[C@@H](OC(=O)N(CCCCNCC(F)(F)CN)CC(F)(F)CN)CC[C@]4(C)[C@H]3CC[C@]12C [SA79, trihydrochloride] as well.
Ans: 97.0

Q: Please do the same for CC(C)CCC[C@@H](C)[C@H]1CC[C@H]2[C@@H]3CC=C4C[C@@H](OC(=O)CCCCC(=O)N(CCCN)CCCCNCCCN)CC[C@]4(C)[C@H]3CC[C@]12C [SA89, trihydrochloride] as well.
Ans: 99.7

Q: Please do the same for CC(C)CCC[C@@H](C)[C@H]1CC[C@H]2[C@@H]3CC=C4C[C@@H](OC(=O)CCC(=O)N(CCCCCCCC(C)(C)N)CCC(C)(C)N)CC[C@]4(C)[C@H]3CC[C@]12C [SA164, dihydrochloride] as well.
Ans: 98.0
